# Tested on: MCF-7 ER+ breast cancer cells
# protocol: alamarBlue combination screening with 6-(4-(tert-butyl)phenoxy)pyridin-3-amine, ZIP synergy analysis
# Type: cell-based, Human
# test context: Drug 2 in combination with 6-(4-(tert-butyl)phenoxy)pyridin-3-amine (Drug 1), 72 hours
Counter-ions that a name gives are not always drawn.

# compound, ZIP score
measured = [
    ("O=C(Nc1c[nH]nc1-c1nc2cc(CN3CCOCC3)ccc2[nH]1)NC1CC1", 8.38),
    ("CO[C@H]1C[C@@H]2CC[C@@H](C)[C@@](O)(O2)C(=O)C(=O)N2CCCC[C@H]2C(=O)O[C@H]([C@H](C)C[C@@H]2CC[C@@H](OC(=O)C(C)(CO)CO)[C@H](OC)C2)CC(=O)[C@H](C)/C=C(\\C)[C@@H](O)[C@@H](OC)C(=O)[C@H](C)C[C@H](C)/C=C/C=C/C=C/1C", 23.81),
    ("CC#CC(=O)N1CCC[C@H]1c1nc(-c2ccc(C(=O)Nc3ccccn3)cc2)c2c(N)nccn12", 6.86),
    ("CC(C)c1cc(CNc2nc(Nc3cc(C4CC4)[nH]n3)cc(N3CCN(C)CC3)n2)on1", 21.86),
    ("NC1(c2ccc(-c3nc4ccn5c(=O)[nH]nc5c4cc3-c3ccccc3)cc2)CCC1 [MK-2206, dihydrochloride]", 16.97),
    ("Cn1c(=O)n(-c2ccc(C(C)(C)C#N)cc2)c2c3cc(-c4cnc5ccccc5c4)ccc3ncc21", 17.40),
]

Value source: patent US20250000870A1
